- experiment notes: Proteolytic stability in human serum, radio-HPLC
- Type: in vitro ADME
- condition set: 37 °C, 1 h
Below is a list of entries, each paired with its recorded intact radiotracer in human serum after 1 h value.
Quick reminder: number only, in %, skip the unit.

See these solved cases before continuing.
molecule	readout value
Cc1c(COc2cc(OCc3cncc(S(C)(=O)=O)c3)c(CN[C@@H](CS(=O)(=O)O)C(=O)NCCS(=O)(=O)O)cc2Cl)cccc1-c1cccc(OCc2cn(CCCN3CCN(C(=O)[C@H](CS(=O)(=O)O)NC(=O)CC[C@H](C(=O)O)N4CCN(CC(=O)O)CCN(CC(=O)O)CC4)CC3)nn2)c1C.[64Cu+2] [[^64Cu]Cu-3]	94.1
Cc1c(COc2cc(OCc3cncc(S(C)(=O)=O)c3)c(CN[C@@H](CS(=O)(=O)O)C(=O)NCCP(=O)(O)O)cc2Cl)cccc1-c1cccc(OCc2cn(CCCN3CCN(C(=O)CC[C@H](C(=O)O)N4CCN(CC(=O)O)CCN(CC(=O)O)CC4)CC3)nn2)c1C.[64Cu+2] [[^64Cu]Cu-4]	98.3
Cc1c(COc2cc(OCc3cncc(S(C)(=O)=O)c3)c(CN[C@@H](CS(=O)(=O)O)C(=O)NCCP(=O)(O)O)cc2Cl)cccc1-c1cccc(OCc2cn(CCCN3CCN(C(=O)[C@H](CP(=O)(O)O)NC(=O)CC[C@H](C(=O)O)N4CCN(CC(=O)O)CCN(CC(=O)O)CC4)CC3)nn2)c1C.[64Cu+2] [[^64Cu]Cu-6]	96.3

[in] Please report the recorded intact radiotracer in human serum after 1 h for Cc1c(COc2cc(OCc3cncc(S(C)(=O)=O)c3)c(CN[C@@H](CS(=O)(=O)O)C(=O)NCCP(=O)(O)O)cc2Cl)cccc1-c1cccc(OCc2cn(CCCN3CCN(C(=O)[C@H](CS(=O)(=O)O)NC(=O)CC[C@H](C(=O)O)N4CCN(CC(=O)O)CCN(CC(=O)O)CC4)CC3)nn2)c1C.[64Cu+2] [[^64Cu]Cu-5] .
[out] 94.0

----------
Below is a list of entries, each paired with its recorded SUVmax PC3 PD-L1 overexpressing tumor value.
- Tested on: PC3 PD-L1-overexpressing tumor
- experiment notes: Small-animal PET, uptake in PD-L1-overexpressing tumor
- condition set: 24.5 (24–25) hours p.i., tracer only
Give your answer as a number; write no unit.

See these solved cases before continuing.
molecule	study system	SUVmax PC3 PD-L1 overexpressing tumor
Cc1c(COc2cc(OCc3cncc(S(C)(=O)=O)c3)c(CN[C@@H](CS(=O)(=O)O)C(=O)NCCP(=O)(O)O)cc2Cl)cccc1-c1cccc(OCc2cn(CCCN3CCN(C(=O)CC[C@H](C(=O)O)N4CCN(CC(=O)O)CCN(CC(=O)O)CC4)CC3)nn2)c1C.[64Cu+2] [[^64Cu]Cu-4]	PC3 PD-L1-overexpressing tumor	2.0
Cc1c(COc2cc(OCc3cncc(S(C)(=O)=O)c3)c(CN[C@@H](CS(=O)(=O)O)C(=O)NCCS(=O)(=O)O)cc2Cl)cccc1-c1cccc(OCc2cn(CCCN3CCN(C(=O)[C@H](CS(=O)(=O)O)NC(=O)CC[C@H](C(=O)O)N4CCN(CC(=O)O)CCN(CC(=O)O)CC4)CC3)nn2)c1C.[64Cu+2] [[^64Cu]Cu-3]	PC3 PD-L1-overexpressing tumor	1.35
Cc1c(COc2cc(OCc3cncc(C#N)c3)c(CN[C@@H](CS(=O)(=O)O)C(=O)NCCS(=O)(=O)O)cc2Cl)cccc1-c1cccc(OCc2cn(CCCN3CCN(C(=O)[C@H](CS(=O)(=O)O)NC(=O)CC[C@H](C(=O)O)N4CCN(CC(=O)O)CCN(CC(=O)O)CC4)CC3)nn2)c1C.[64Cu+2] [[^64Cu]Cu-1]	PC3 PD-L1-overexpressing tumor	1.4
Cc1c(COc2cc(OCc3cncc(S(C)(=O)=O)c3)c(CN[C@@H](CS(=O)(=O)O)C(=O)NCCP(=O)(O)O)cc2Cl)cccc1-c1cccc(OCc2cn(CCCN3CCN(C(=O)[C@H](CS(=O)(=O)O)NC(=O)CC[C@H](C(=O)O)N4CCN(CC(=O)O)CCN(CC(=O)O)CC4)CC3)nn2)c1C.[64Cu+2] [[^64Cu]Cu-5]	PC3 PD-L1-overexpressing tumor	1.2

Now examine the next entry.
[in] Please report the recorded SUVmax PC3 PD-L1 overexpressing tumor for Cc1c(COc2cc(OCc3cncc(S(C)(=O)=O)c3)c(CN[C@@H](CS(=O)(=O)O)C(=O)NCCP(=O)(O)O)cc2Cl)cccc1-c1cccc(OCc2cn(CCCN3CCN(C(=O)[C@H](CP(=O)(O)O)NC(=O)CC[C@H](C(=O)O)N4CCN(CC(=O)O)CCN(CC(=O)O)CC4)CC3)nn2)c1C.[64Cu+2] [[^64Cu]Cu-6] .
[out] 2.2

----------
- Test system: PC3 mock tumor
- experiment notes: Small-animal PET, uptake in mock tumor
- condition set: 24.5 (24–25) hours p.i.; blocker i.v. before tracer: Cu-1 100 nmol 1, Cu-2 100 nmol 2, Cu-3 1000 nmol 4, Cu-4 500 nmol 4, Cu-6 250 nmol 1 (~5 min prior), Cu-5 100 nmol 5 (~30 min prior)
Labelling field: enter 1.0 if recorded SUVmax PC3 mock tumor +block is less than 0.8. Enter 0.0 if it equals or exceeds that cut-off.

compound	study system	answer label
Cc1c(COc2cc(OCc3cncc(S(C)(=O)=O)c3)c(CN[C@@H](CS(=O)(=O)O)C(=O)NCCP(=O)(O)O)cc2Cl)cccc1-c1cccc(OCc2cn(CCCN3CCN(C(=O)[C@H](CP(=O)(O)O)NC(=O)CC[C@H](C(=O)O)N4CCN(CC(=O)O)CCN(CC(=O)O)CC4)CC3)nn2)c1C.[64Cu+2] [[^64Cu]Cu-6]	PC3 mock tumor	0.0
Cc1c(COc2cc(OCc3cncc(S(C)(=O)=O)c3)c(CN[C@@H](CS(=O)(=O)O)C(=O)NCCS(=O)(=O)O)cc2Cl)cccc1-c1cccc(OCc2cn(CCCN3CCN(C(=O)[C@H](CS(=O)(=O)O)NC(=O)CC[C@H](C(=O)O)N4CCN(CC(=O)O)CCN(CC(=O)O)CC4)CC3)nn2)c1C.[64Cu+2] [[^64Cu]Cu-3]	PC3 mock tumor	1.0
Cc1c(COc2cc(OCc3cncc(S(C)(=O)=O)c3)c(CN[C@@H](CS(=O)(=O)O)C(=O)NCCP(=O)(O)O)cc2Cl)cccc1-c1cccc(OCc2cn(CCCN3CCN(C(=O)[C@H](CS(=O)(=O)O)NC(=O)CC[C@H](C(=O)O)N4CCN(CC(=O)O)CCN(CC(=O)O)CC4)CC3)nn2)c1C.[64Cu+2] [[^64Cu]Cu-5]	PC3 mock tumor	0.0

With those in mind, consider the next compound.
[in] Determine whether this compound shows SUVmax PC3 mock tumor +block lower than 0.8 (ties excluded): Cc1c(COc2cc(OCc3cncc(C#N)c3)c(CN[C@@H](CS(=O)(=O)O)C(=O)NCCS(=O)(=O)O)cc2Cl)cccc1-c1cccc(OCc2cn(CCCN3CCN(C(=O)[C@H](CS(=O)(=O)O)NC(=O)CC[C@H](C(=O)O)N4CCN(CC(=O)O)CCN(CC(=O)O)CC4)CC3)nn2)c1C.[64Cu+2] [[^64Cu]Cu-1]
[out] 1.0

----------
- Test system: PC3 mock tumor
- experiment notes: Small-animal PET, uptake in mock tumor
- condition set: 4.5 (4–5) hours p.i.; blocker i.v. before tracer: Cu-1 100 nmol 1, Cu-2 100 nmol 2, Cu-3 1000 nmol 4, Cu-4 500 nmol 4, Cu-6 250 nmol 1 (~5 min prior), Cu-5 100 nmol 5 (~30 min prior)
Below is a list of entries, each paired with its recorded SUVmax PC3 mock tumor +block value.
Give your answer as a number; write no unit.

compound	SUVmax PC3 mock tumor +block
Cc1c(COc2cc(OCc3cncc(C#N)c3)c(CN[C@@H](CS(=O)(=O)O)C(=O)NCCS(=O)(=O)O)cc2Cl)cccc1-c1cccc(OCc2cn(CCCN3CCN(C(=O)[C@H](CS(=O)(=O)O)NC(=O)CC[C@H](C(=O)O)N4CCN(CC(=O)O)CCN(CC(=O)O)CC4)CC3)nn2)c1C.[64Cu+2] [[^64Cu]Cu-1]	1.0
Cc1c(COc2cc(OCc3cncc(S(C)(=O)=O)c3)c(CN[C@@H](CS(=O)(=O)O)C(=O)NCCS(=O)(=O)O)cc2Cl)cccc1-c1cccc(OCc2cn(CCCN3CCN(C(=O)[C@H](CS(=O)(=O)O)NC(=O)CC[C@H](C(=O)O)N4CCN(CC(=O)O)CCN(CC(=O)O)CC4)CC3)nn2)c1C.[64Cu+2] [[^64Cu]Cu-3]	0.55
Cc1c(COc2cc(OCc3cncc(S(C)(=O)=O)c3)c(CN[C@@H](CS(=O)(=O)O)C(=O)NCCP(=O)(O)O)cc2Cl)cccc1-c1cccc(OCc2cn(CCCN3CCN(C(=O)[C@H](CS(=O)(=O)O)NC(=O)CC[C@H](C(=O)O)N4CCN(CC(=O)O)CCN(CC(=O)O)CC4)CC3)nn2)c1C.[64Cu+2] [[^64Cu]Cu-5]	0.85
Cc1c(COc2cc(OCc3cncc(S(C)(=O)=O)c3)c(CN[C@@H](CS(=O)(=O)O)C(=O)NCCP(=O)(O)O)cc2Cl)cccc1-c1cccc(OCc2cn(CCCN3CCN(C(=O)CC[C@H](C(=O)O)N4CCN(CC(=O)O)CCN(CC(=O)O)CC4)CC3)nn2)c1C.[64Cu+2] [[^64Cu]Cu-4]	0.6

[in] Please report the recorded SUVmax PC3 mock tumor +block for Cc1c(COc2cc(OCc3cncc(S(C)(=O)=O)c3)c(CN[C@@H](CS(=O)(=O)O)C(=O)NCCP(=O)(O)O)cc2Cl)cccc1-c1cccc(OCc2cn(CCCN3CCN(C(=O)[C@H](CP(=O)(O)O)NC(=O)CC[C@H](C(=O)O)N4CCN(CC(=O)O)CCN(CC(=O)O)CC4)CC3)nn2)c1C.[64Cu+2] [[^64Cu]Cu-6] .
[out] 1.7
